# Assay System: HIV-1 JR-CSF Env N276A (HIV-1 JR-CSF) (UniProt P20871)
# Assay Details: cell-based or functional assay
The reader will find reported Fold IC50 increase relative to wild-type values listed item by item below.
Kindly provide the numeric value in fold only, without the unit symbol.

Example results:
>  <Binder>
PGT-127 (antibody, V domains shown) VH: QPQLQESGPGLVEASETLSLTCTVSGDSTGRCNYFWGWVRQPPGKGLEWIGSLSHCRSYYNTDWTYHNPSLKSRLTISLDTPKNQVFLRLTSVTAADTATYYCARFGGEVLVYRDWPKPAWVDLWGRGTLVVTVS VL: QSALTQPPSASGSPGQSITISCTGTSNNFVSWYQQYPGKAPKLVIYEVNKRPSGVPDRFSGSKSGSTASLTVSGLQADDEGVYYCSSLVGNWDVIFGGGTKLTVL

>  <Fold IC50 increase relative to wild-type [fold]>
1.6

$$$$
>  <Binder>
PGT-130 (antibody, V domains shown) VH: QVQLQESGPGLVKPAETLSLTCSVSGESINTGHYYWGWVRQVPGKGLEWIGHIHYTTAVLHNPSLKSRLTIKIYTLRNQITLRLSNVTAADTAVYHCVRSGGDILYYYEWQKPHWFSPWGPGIHVTVSS VL: QSALTQPPSASGSLGQSVTISCNGTSSDIGGWNFVSWYQQFPGRAPRLIIFEVNKRPSGVPGRFSGSKSGNSASLTVSGLQSDDEGQYFCSSLFGRWDVVFGGGTKLTVL

>  <Fold IC50 increase relative to wild-type [fold]>
1

$$$$
>  <Binder>
PGT-126 (antibody, V domains shown) VH: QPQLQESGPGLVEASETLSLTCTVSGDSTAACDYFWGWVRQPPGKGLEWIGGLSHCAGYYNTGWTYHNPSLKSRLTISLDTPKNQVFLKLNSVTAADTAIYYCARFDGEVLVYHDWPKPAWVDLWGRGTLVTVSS VL: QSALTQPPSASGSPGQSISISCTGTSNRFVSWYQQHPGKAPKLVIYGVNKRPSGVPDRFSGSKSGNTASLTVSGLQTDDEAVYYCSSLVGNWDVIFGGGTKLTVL

>  <Fold IC50 increase relative to wild-type [fold]>
0.9

$$$$
>  <Binder>
PGT-128 (antibody, V domains shown) VH: QPQLQESGPTLVEASETLSLTCAVSGDSTAACNSFWGWVRQPPGKGLEWVGSLSHCASYWNRGWTYHNPSLKSRLTLALDTPKNLVFLKLNSVTAADTATYYCARFGGEVLRYTDWPKPAWVDLWGRGTLVTVSS VL: QSALTQPPSASGSPGQSITISCTGTSNNFVSWYQQHAGKAPKLVIYDVNKRPSGVPDRFSGSKSGNTASLTVSGLQTDDEAVYYCGSLVGNWDVIFGGGTKLTVL

>  <Fold IC50 increase relative to wild-type [fold]>
0.6

$$$$

// next entry
Lookup: Given the entry PGT-131 (antibody, V domains shown) VH: QVQLQESGPGLVKPSETLSLTCTVSGDSINTGHHYWGWVRQVPGKGPEWIAHIHYNTAVLHNPALKSRVTISIFTLKNLITLSLSNVTAADTAVYFCVRSGGDILYYIEWQKPHWFYPWGPGILVTVSS VL: QSALTQPPSASGSLGQSLTISCSGTGSDIGSWNFVSWYQQFPGRAPNLIIFEVNRRRSGVPDRFSGSKSGNTASLTVSGLRSEDEAEYFCSSLSGRWDIVFGGGTKVTVL , report its measured Fold IC50 increase relative to wild-type.
Found: 0.8

Source: patent US20200024330A1
